- measured on: T1, ΔN-DRH3 (Caenorhabditis elegans, UniProt Q93413 300-1119)
- T1 sequence: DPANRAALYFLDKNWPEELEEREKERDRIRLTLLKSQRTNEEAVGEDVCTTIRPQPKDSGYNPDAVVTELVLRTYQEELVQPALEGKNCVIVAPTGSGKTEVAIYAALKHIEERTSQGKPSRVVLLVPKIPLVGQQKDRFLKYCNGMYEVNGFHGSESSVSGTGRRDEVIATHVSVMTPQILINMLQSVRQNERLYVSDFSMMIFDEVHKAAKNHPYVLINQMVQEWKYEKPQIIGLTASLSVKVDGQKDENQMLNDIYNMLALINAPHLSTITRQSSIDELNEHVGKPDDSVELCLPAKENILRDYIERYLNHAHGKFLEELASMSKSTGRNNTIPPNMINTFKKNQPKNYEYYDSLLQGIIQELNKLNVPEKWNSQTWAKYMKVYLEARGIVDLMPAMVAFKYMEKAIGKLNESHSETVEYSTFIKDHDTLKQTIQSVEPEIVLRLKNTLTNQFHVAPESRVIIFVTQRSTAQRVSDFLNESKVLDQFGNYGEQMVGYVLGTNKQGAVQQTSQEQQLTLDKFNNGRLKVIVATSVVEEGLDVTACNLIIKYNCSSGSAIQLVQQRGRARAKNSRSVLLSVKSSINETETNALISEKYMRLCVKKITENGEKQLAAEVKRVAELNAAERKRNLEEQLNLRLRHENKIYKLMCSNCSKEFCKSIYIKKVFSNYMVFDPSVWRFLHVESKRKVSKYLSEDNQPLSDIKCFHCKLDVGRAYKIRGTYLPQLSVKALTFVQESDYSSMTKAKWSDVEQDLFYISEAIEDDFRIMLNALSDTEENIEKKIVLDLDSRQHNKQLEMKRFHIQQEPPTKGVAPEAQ
- assay name: EMSA
measurement name: Kd (nM)
Answers are plain numbers, in nM.

-- ask Name the reported Kd value associated with the binder ds12 (dsRNA) RNA 1: GCCCAGACCACC RNA 2: GGUGGUCUGGGC
-- reply 522
